Hey, just so you know, these numbers are from paper PMC8161373.

System: Mia PaCa-2 pancreatic cancer cell line
Test: MTT cell viability assay, MIA PaCa-2
Format: cell-based
Settings: Homo sapiens, 48 h treatment, n = 3
pIC50: −log10 of the molar value.
parameter.measured: pIC50

Reference set (3 entries):
molecule	pIC50
C[C@]12CCC(=O)C[C@H]1CC(O)C1C2CC(O)[C@]2(C)[C@@H](C3=CC(=O)OC3)[C@@H](O)C[C@]12O (some centres unmarked)	< 5.00
COC1(OC)CC[C@]2(C)C3CC[C@]4(C)[C@@H](C5=CC(=O)OC5)[C@@H](O)C[C@]4(O)C3C(O)C[C@@H]2C1 (some centres unmarked)	< 5.00
C[C@]12CC[C@@H](O)C[C@H]1CCC1C2CC(O)[C@]2(C)[C@@H](C3=CC(=O)OC3)[C@@H](O)C[C@]12O (some centres unmarked)	5.47

// recorded pIC50 for C[C@]12CCC(=O)C[C@H]1CC(O)C1C2CC[C@]2(C)[C@@H](C3=CC(=O)OC3)[C@@H](O)C[C@]12O (some centres unmarked) : < 5.00

For record C[C@]12CC[C@@H](O)C[C@H]1CC(O)C1C2CC[C@]2(C)[C@@H](C3=CC(=O)OC3)[C@@H](O)C[C@]12O (some centres unmarked) the listed pIC50 is < 5.00

C[C@]12CCC(=O)C[C@H]1CCC1C2CC[C@]2(C)[C@@H](C3=CC(=O)OC3)[C@@H](O)C[C@]12O (some centres unmarked) yielded pIC50 of < 5.00

response.value for COc1cccc2c1C(=O)c1c(O)c3c(c(O)c1C2=O)C[C@@](O)(C(=O)CO)C[C@@H]3O[C@H]1C[C@H](N)[C@H](O)[C@H](C)O1 [Doxorubicin, reference compound] (field: pIC50) = 6.23

The reported pIC50 of the molecule C[C@]12CCC(=O)C[C@H]1CCC1C2CC(O)[C@]2(C)[C@@H](C3=CC(=O)OC3)[C@@H](O)C[C@]12O (some centres unmarked) was < 5.00

What the record says about CO[C@H]1C[C@H](O[C@H]2CC[C@@]3(C)[C@H](CC[C@@H]4[C@@H]3CC[C@]3(C)[C@@H](C5=CC(=O)OC5)[C@@H](OC(C)=O)C[C@]43O)C2)O[C@@H](C)[C@@H]1O [Oleandrin, reference compound] : pIC50 is 7.46

Quick note, pIC50 for C[C@]12CC[C@@H](O)C[C@H]1CCC1C2CC[C@]2(C)[C@@H](C3=CC(=O)OC3)[C@@H](O)C[C@]12O (some centres unmarked) landed at < 5.00

Item: C[C@]12CC[C@H](O)C[C@H]1CCC1C2CC[C@]2(C)[C@@H](C3=CC(=O)OC3)[C@@H](O)C[C@]12O (some centres unmarked) | pIC50: 5.51

----------
Below, each entry is listed alongside its reported pIC50.
System: MRC-5 human lung fibroblast cell line
Assay: MTT cell viability assay, MRC-5 (healthy)
Assay type: cell-based
Details: MRC5, 48 h treatment, n = 3
# reply with the number alone; pIC50 is -log10 of concentration in mol/L

compound	pIC50
C[C@]12CC[C@@H](O)C[C@H]1CCC1C2CC(O)[C@]2(C)[C@@H](C3=CC(=O)OC3)[C@@H](O)C[C@]12O (some centres unmarked) [Compound 8]	5.03

Recorded pIC50 (compound COc1cccc2c1C(=O)c1c(O)c3c(c(O)c1C2=O)C[C@@](O)(C(=O)CO)C[C@@H]3O[C@H]1C[C@H](N)[C@H](O)[C@H](C)O1 [Doxorubicin, reference compound] ): 6.06

----------
Let's look at some compounds and their measured IC50.
Tested on: MRC-5 human lung fibroblast cell line
Test: MTT cell viability assay, MRC-5 (healthy)
Assay type: cell-based
Settings: MRC5, 48 h treatment, n = 3

See these solved cases before continuing.
compound	IC50
C[C@]12CC[C@@H](O)C[C@H]1CC(O)C1C2CC[C@]2(C)[C@@H](C3=CC(=O)OC3)[C@@H](O)C[C@]12O (stereo partly drawn)	> 10 µM
COC1(OC)CC[C@]2(C)C3CC[C@]4(C)[C@@H](C5=CC(=O)OC5)[C@@H](O)C[C@]4(O)C3C(O)C[C@@H]2C1 (stereo partly drawn)	> 10 µM
C[C@]12CC[C@H](O)C[C@H]1CCC1C2CC[C@]2(C)[C@@H](C3=CC(=O)OC3)[C@@H](O)C[C@]12O (stereo partly drawn)	0.815 µM
CO[C@H]1C[C@H](O[C@H]2CC[C@@]3(C)[C@H](CC[C@@H]4[C@@H]3CC[C@]3(C)[C@@H](C5=CC(=O)OC5)[C@@H](OC(C)=O)C[C@]43O)C2)O[C@@H](C)[C@@H]1O [Oleandrin, reference compound]	0.0173 µM
C[C@]12CCC(=O)C[C@H]1CC(O)C1C2CC(O)[C@]2(C)[C@@H](C3=CC(=O)OC3)[C@@H](O)C[C@]12O (stereo partly drawn)	> 10 µM

Field IC50 (entry C[C@]12CCC(=O)C[C@H]1CCC1C2CC(O)[C@]2(C)[C@@H](C3=CC(=O)OC3)[C@@H](O)C[C@]12O (stereo partly drawn) ) reads > 10 µM

----------
System: MRC-5 human lung fibroblast cell line
Experiment: MTT cell viability assay, MRC-5 (healthy)
Assay type: cell-based
Conditions: MRC5, 48 h treatment, n = 3
pIC50: −log10 of the molar value.
parameter.measured: pIC50

> print(dat)
                                   molecule                         assayed.system  parameter.measured  measurement
1  C[C@]12CCC(=O)C[C@H]1CC(O)C1C2CC[C@]2(C)[C@@H](C3=CC(=O)OC3)[C@@H](O)C[C@]12O (stereo partly drawn)  MRC-5 human lung fibroblast cell line               pIC50       < 5.00
2  C[C@]12CCC(=O)C[C@H]1CCC1C2CC[C@]2(C)[C@@H](C3=CC(=O)OC3)[C@@H](O)C[C@]12O (stereo partly drawn)  MRC-5 human lung fibroblast cell line               pIC50       < 5.00

Now for the molecule whose pIC50 we want.
MRC-5 human lung fibroblast cell line pIC50 of C[C@]12CC[C@@H](O)C[C@H]1CCC1C2CC[C@]2(C)[C@@H](C3=CC(=O)OC3)[C@@H](O)C[C@]12O (stereo partly drawn) is < 5.00
